- System: OVCAR-8 ovarian
- PROTOCOL NOTES: NCI-60 one-dose screen, 48 h
- COND: 10 µM unless noted
The panel holds about 83,000 compounds, 20% with a hit somewhere; the sample as a whole holds those more often. The source made the active and inactive calls. The calls were made as follows: active = growth percent below 10; inactive = the rest.
Classes used: Yes = active, No = inactive

{"columns": ["COMPOUND", "ASSIGNED LABEL"],
 "data": [
  ["CCSc1nnc(NC(=O)COc2ccc(Cl)cc2C)s1", "No"],
  ["CN1CCN(c2ccc3cc(-c4nc5ccccc5[nH]4)c(=O)oc3c2)CC1", "No"],
  ["CC/C=C\\C/C=C\\C[C@H](O)C/C=C1/C(=O)C=C[C@H]1C/C=C\\CCC(=O)OC", "No"],
  ["O=C(CNc1c(Cl)cccc1Cl)Nc1ccc(-c2nc3ccccc3s2)cc1", "No"],
  ["O=C1CCC(=O)N1Cc1ccccc1", "No"],
  ["CN(C)c1ccc(/C=C\\N=Nc2ccc(Br)cc2)cc1", "No"],
  ["O=C(CSc1nc(-c2ccc(Cl)cc2)cn1-c1ccc(Cl)cc1)c1ccc(Br)cc1", "No"],
  ["COc1ccc2c(c1)C(=O)/C(=C/c1ccc(O)cc1)O2", "No"],
  ["CCOC(=O)C(Cc1ccccc1)n1c(O)c(C=Nc2ccc(C(=O)OCCN(CC)CC)cc2)sc1=O (stereo not drawn)", "No"],
  ["Cc1cc2c(C(C)C)c(O)c(O)c(C=NCCCCC(=O)O)c2c(O)c1-c1c(C)cc2c(C(C)C)c(O)c(O)c(C=NCCCCC(=O)O)c2c1O", "No"],
  ["COC(=O)CCCCN=Cc1c(O)c(O)c(C(C)C)c2cc(C)c(-c3c(C)cc4c(C(C)C)c(O)c(O)c(C=NCCCCC(=O)OC)c4c3O)c(O)c12", "No"],
  ["COc1ccc(C(=O)/C=C/c2ccc(/C=C/c3cc(OC)c(OC)c(OC)c3)cc2)cc1", "No"],
  ["COc1ccc(/C=C\\c2cc(OC)c(OC)c(OC)c2)c(NS(=O)(=O)c2ccc(C(C)(C)C)cc2)c1O", "No"],
  ["Cn1c(C(N)=O)cc2c1-c1nc(NC3CCCCC3)ncc1CCC2", "No"],
  ["CC/C=C\\C[C@H](O)C/C=C1/C(=O)C(Cl)=C[C@@H]1C/C=C\\CCCC(=O)O", "No"],
  ["CCC1CCc2nc3sc(C(=O)Nc4ccccc4C)c(N)c3cc2C1 (stereo not drawn)", "No"],
  ["Cc1cc(C)c2c(=O)[nH]c(SCC(=O)Nc3cccc(S(=O)(=O)N(C)C)c3)nc2n1", "No"],
  ["Cc1ccc(S(=O)(=O)NCCCNc2nccc(-c3c(-c4ccccc4)nc4sccn34)n2)cc1", "No"],
  ["COc1cc(/C=C2\\CCCC3=C2NC(C)=NC3c2cc(OC)c(OC)c(OC)c2)cc(OC)c1OC (stereo not drawn)", "Yes"],
  ["COc1ccc(C2CC(c3cccs3)=NN2c2ccc(S(=O)(=O)NC(=O)Nc3ccc(C)cc3)cc2)cc1 (stereo not drawn)", "No"],
  ["COc1cc(/C=C/C(=O)c2ccc(NC(=O)CN3CCN(c4cc5c(cc4F)c(=O)c(C(=O)O)cn5C4CC4)CC3)cc2)cc(OC)c1OC", "Yes"],
  ["CCCCCCOc1ccc(C2(Cl)c3ccccc3N(C)c3ccccc32)cc1", "No"],
  ["C#CCN1C(=O)/C(=c2\\sc3n(c2=O)NC2C(N=3)N(CC)C(=O)N2CC)c2ccccc21 (stereo not drawn)", "No"],
  ["O=[N+]([O-])c1c(S(=O)(=O)O)cc2cc(S(=O)(=O)O)ccc2c1[N+](=O)[O-]", "No"],
  ["Clc1cccc(Cl)c1Cn1c(-c2cncs2)nc2ccccc21", "No"],
  ["COc1ccc(N=C2NN=C(c3ccc(F)cc3)CS2)cc1OC", "No"],
  ["CN(C)C1CCC(NC2=CC(=O)C=CC2=O)CC1 (stereo not drawn)", "No"],
  ["CCNC(=O)C1CCCN1C(=O)C(CCCN=C(N)N)NC(=O)C(CC(C)C)NC(=O)C(CC(C)C)NC(=O)C(Cc1ccc(O)cc1)NC(=O)C(CO)NC(=O)C(Cc1c[nH]c2ccccc12)NC(=O)C(Cc1cnc[nH]1)NC(=O)C1CCC(=O)N1 (stereo not drawn)", "No"]
]}

---

- Test system: HT29 colon
- PROTOCOL NOTES: NCI-60 one-dose screen, 48 h
- COND: 10 µM unless noted
- Protocol: Growth inhibition of the HT29 human tumor cell line is measured as a screen for anti-cancer activity. Cells are grown in 96 well plates and exposed to the test compound for 48 hours. Compounds are tested at a single concentration, which is 10^-5 M for most compounds. The reported endpoint is percent growth (GI% or GIPRCNT), where numbers from 0 - 100% represent growth inhibition, and numbers from -100% - 0 represent cell death. For example, a value of 40 represents 60% growth inhibition. […]
Compounds without any hit were thinned out: in the full panel of roughly 83,000, 20% have a hit. The source made the active and inactive calls. Rule for the calls: active = growth percent below 10; inactive = the rest.
Outcomes: active, inactive

{"columns": ["COMPOUND", "TARGET OF ASSAY", "ASSIGNED LABEL"],
 "data": [
  ["Cc1cccc2cc(/C=C/C(=O)/C=C/c3ccc(Cl)cc3)c(=O)[nH]c12", "HT29 colon", "active"],
  ["C=CCN=C1NC(=O)/C(=C/c2cc(C(C)(C)C)c(O)c(C(C)(C)C)c2)S1", "HT29 colon", "inactive"],
  ["CCN1C(=O)N(CC)C2C1NN=c1s/c(=C\\c3ccccn3)c(=O)n12 (stereo not given)", "HT29 colon", "active"],
  ["COc1ccc(/C=C/C(=O)c2cccc(B(O)O)c2)cc1O", "HT29 colon", "inactive"],
  ["CC1=C(C#N)C(C)(C)C(C#N)=C(C)N1", "HT29 colon", "inactive"],
  ["CC(C)CCC[C@@H](C)[C@H]1CC[C@H]2[C@@H]3CC[C@H]4C/C(=N/O)CC[C@]4(C)[C@H]3CC[C@]12C", "HT29 colon", "inactive"],
  ["CCN1C(=O)N(CC)C2C1NN=c1s/c(=C\\c3cccc(F)c3)c(=O)n12 (stereo not given)", "HT29 colon", "inactive"],
  ["Cc1cnc(NC(=O)C(Cc2ccccc2)NC(=O)c2ccccc2)s1 (stereo not given)", "HT29 colon", "inactive"],
  ["COc1ccc(/C=C/C(=O)OCC(=O)NNC(=O)c2ccccc2)cc1OC", "HT29 colon", "inactive"],
  ["COc1cc(CCn2nnc3c(NCCCCO)ncnc32)cc(OC)c1", "HT29 colon", "inactive"],
  ["CC1Cc2c(N(C)C)ncnc2N(C)c2ccc(Cl)cc21 (stereo not given)", "HT29 colon", "inactive"],
  ["CCN(CC)CCSc1c2ccc(Cl)cc2nc2ccc(OC)cc12", "HT29 colon", "inactive"],
  ["NC(=O)NC(=O)/C=C/C(=O)OCCCl", "HT29 colon", "inactive"],
  ["CCO/C=N/NC(=O)c1ccncc1", "HT29 colon", "inactive"],
  ["COC1=CC(c2ccc[nH]2)=N/C1=C\\c1[nH]c(C)c(C(=O)CCCCC(=O)Oc2ccc3c(c2)CCC2C3CC[C@]3(C)[C@@H](O)CC[C@@H]23)c1C (stereo not given in full)", "HT29 colon", "inactive"],
  ["Cc1sc(N=Nc2ccc(N(C)C)cc2)[n+]([O-])c1C", "HT29 colon", "inactive"],
  ["COC1=CC(c2ccc[nH]2)=N/C1=C\\c1[nH]c(C)c(C(=O)CCCCC(=O)NCc2ccccc2)c1C", "HT29 colon", "active"],
  ["CC/C=C\\C/C=C\\C[C@H](O)C/C=C1/C(=O)C=C[C@H]1C/C=C\\CCC(=O)OC", "HT29 colon", "active"],
  ["COc1ccc(C(=O)c2cc(OC)c(OC)c(OC)c2)cc1/C=C/C(=O)c1ccc(OC)c(OC)c1", "HT29 colon", "active"],
  ["Nc1nc(-c2cc3ccccc3o2)cc(=O)c(=O)[nH]1", "HT29 colon", "inactive"],
  ["O=C1C2=C(C(=O)c3c(O)ccc(O)c31)N(c1cccnc1)Cc1ccccc1O2", "HT29 colon", "active"],
  ["COc1cc(-c2cc(/C=C3\\CCCCC3=O)[nH]n2)cc(OC)c1OC", "HT29 colon", "inactive"],
  ["N=C(N)c1ccc(-c2ccc(-c3ccc(Cl)cc3)o2)nc1", "HT29 colon", "active"],
  ["CC(=O)C1CCC(C)=CC1=O (stereo not given)", "HT29 colon", "inactive"],
  ["O=C(Nc1ccc(I)cc1)c1cccc([N+](=O)[O-])c1O", "HT29 colon", "inactive"],
  ["C=C1C(=O)O[C@H]2[C@H]1CC/C(Cn1cc(-c3ccsc3)nn1)=C\\CC[C@@]1(C)O[C@@H]21", "HT29 colon", "active"],
  ["COc1ccc(/C=C\\c2cc(OC)c(OC)c(OC)c2)c(NS(=O)(=O)c2ccc(C(C)(C)C)cc2)c1O", "HT29 colon", "inactive"],
  ["COc1ccc(Cl)cc1NC(N)=S", "HT29 colon", "inactive"],
  ["O=C1N=C(c2c(-c3[nH]c(=O)c4ccc(Br)cc4c3O)c(O)c3ccccc3c2O)C(=O)c2cc(Br)ccc21", "HT29 colon", "inactive"],
  ["COc1ccc(N=C2NN=C(c3ccc(F)cc3)CS2)cc1OC", "HT29 colon", "inactive"],
  ["Oc1ccc(N=Cc2ccccc2)cc1", "HT29 colon", "inactive"],
  ["COc1ccc(C2NC3=C(CCCC3)C(C#N)(C#N)C2(C#N)C#N)cc1 (stereo not given)", "HT29 colon", "inactive"],
  ["CCN(Cc1ccc(CN(CC)C(=O)C(Br)Br)cc1)C(=O)C(Br)Br", "HT29 colon", "active"],
  ["CNC(C)=O", "HT29 colon", "inactive"],
  ["CC(C)CCN(CCCNc1c2c(nc3ccccc13)CCCC2)CCC(C)C", "HT29 colon", "inactive"],
  ["O=C(Nc1ccc(Br)c(Cl)c1)c1cc(F)ccc1O", "HT29 colon", "active"],
  ["c1ccc2c(c1)Oc1ccccc1C2C1c2ccccc2Oc2ccccc21", "HT29 colon", "inactive"],
  ["COc1ccc(OC)c(NC(=O)c2cc(S(=O)(=O)N3CCc4ccccc43)ccc2OC)c1", "HT29 colon", "inactive"],
  ["COc1c(NC[C@H]2OC(O)[C@H](O)[C@@H](O)[C@@H]2O)c(=O)c1=O (stereo not given in full)", "HT29 colon", "inactive"],
  ["O=C(O)c1ccc(-n2cc(CNc3ccc(C(F)(F)F)cc3)c(-c3ccccc3)n2)cc1", "HT29 colon", "inactive"]
]}
